tgt: T1, human KLRB1 protein extracellular domain (ECD) (human, UniProt Q12918 67-225)
T1 construct: range 67-225; The ELISA and SPR text says only 'human KLRB1 ECD'; also called human KLRB1 ECD; CD161
T1 sequence (looked up): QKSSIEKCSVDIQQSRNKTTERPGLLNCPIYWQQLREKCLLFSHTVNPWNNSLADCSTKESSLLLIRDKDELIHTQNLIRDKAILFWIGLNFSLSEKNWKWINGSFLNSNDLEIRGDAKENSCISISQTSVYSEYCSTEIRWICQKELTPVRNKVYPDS
protocolDetails: SPR, human KLRB1 ECD; format not stated
reportedEndpoint: kon (M⁻¹ s⁻¹)

- binder: "10A3D6C109Chum2.3 (antibody, V domains shown, Humanized variant of 10A3D6 made by CDR grafting) VH: QVQLVQSGAEVKKPGASVKVSCKASGYSFTGYTMNWVRQAPGQNLEWIGLINPNTGGTYYNQKFKDRVTLTVDTSISTAYMELSRLRSDDTAVYYCARLGDNYRGYFDCWGQGTTVTVSS VL: DIQLTQSPSFLSASVGDRVTITCKASQDVGTAVVWYQQTPGKAPKLLIDWASIRHTGVPSRFSGSGSGTEFTLTISSLQPEDFADYFCQQYSTYLYTFGGGTKLEIK"
  assayValue: 955000
- binder: "10A3D6C109Chum4.5 (antibody, V domains shown, Humanized variant of 10A3D6 made by CDR grafting) VH: QVQLVQSGAEVKKPGASVKVSCKASGYSFTGYTMNWVRQAHGQNLEWIGLINPNTGGTYYNQKFKDRATLTVDTSISTAYMELSRLRSDDTAVYYCARLGDNYRGYFDCWGQGTTVTVSS VL: EIVMTQSPATLSVSPGERATLSCKASQDVGTAVVWYQQKPGQAPRLLIDWASIRHTGIPARFSGSGSGTEFTLTISSLQSEDFAVYYCQQYSTYLYTFGGGTKVEIK"
  assayValue: 843000
- binder: "10A3D6C109Chum2.2 (antibody, V domains shown, Humanized variant of 10A3D6 made by CDR grafting) VH: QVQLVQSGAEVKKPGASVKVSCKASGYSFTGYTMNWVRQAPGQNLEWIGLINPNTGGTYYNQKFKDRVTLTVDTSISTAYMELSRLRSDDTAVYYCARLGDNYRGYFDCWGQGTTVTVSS VL: DIQLTQSPSFLSASVGDRVTITCKASQDVGTAVVWYQQKPGKAPKLLIDWASIRHTGVPSRFSGSGSGTEFTLTISSLQPEDFADYFCQQYSTYLYTFGGGTKLEIK"
  assayValue: 903000
